biological target: h-TGR5 (Homo sapiens); construct: expressed in transfected cells; experiment: TGR5 cAMP Assay using Cisbio cAMP Dynamic2 htrf kit (hTGR5CRE-luc HEK 293 cells); type: cell-based; settings: h-TGR5 cAMP EC50, Table 1; read-out: cAMP (EC50)
Sequence (Q8TDU6 whole entry): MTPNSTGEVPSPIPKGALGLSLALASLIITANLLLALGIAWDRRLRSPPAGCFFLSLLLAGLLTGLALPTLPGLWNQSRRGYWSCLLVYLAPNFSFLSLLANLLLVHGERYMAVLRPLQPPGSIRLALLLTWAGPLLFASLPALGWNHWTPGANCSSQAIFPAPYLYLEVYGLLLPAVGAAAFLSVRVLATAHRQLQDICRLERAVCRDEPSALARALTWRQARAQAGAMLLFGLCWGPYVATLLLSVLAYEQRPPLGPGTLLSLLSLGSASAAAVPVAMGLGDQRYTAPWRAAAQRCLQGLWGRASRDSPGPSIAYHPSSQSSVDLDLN
assay_readout: EC50

Query block: Entry CC(C)(c1ccc(F)c(C#N)c1)c1cnc(SCc2c(F)cc(C(=O)O)cc2F)n1-c1ccc(F)cc1 : reported EC50 = ?
Result block: < 100 nM

Query block: Entry COc1cc(-n2c(C(C)(C)c3ccc(S(C)(=O)=O)cc3)cnc2SCc2ccc(Cl)c(-c3nnn[nH]3)c2)ccc1F : reported EC50 = ?
Result block: 100 to 1000 nM

Query block: Entry COc1ccc(C(C)(C)c2cnc(CN(C)c3c(F)cccc3Cl)n2-c2ccc(F)cc2)cc1OC : reported EC50 = ?
Result block: < 100 nM

Query block: Entry COc1cc(C(C)(C)c2cnc(SCc3c(F)cc(CCCCCNC(=N)N)cc3F)n2-c2ccc(F)cc2)ccc1Cl : reported EC50 = ?
Result block: < 100 nM

* * *

target: human TGR5 (h-TGR5) (Homo sapiens); construct: expressed in transfected cells; assay: TGR5/CRE-Luciferiase Assay (HEK 293 hTGR5/CRE-Luc cells); format: cell-based; details: h-TGR5 CRE-Luc EC50, Table 1; read-out: CRE-Luc (EC50)
Sequence (Q8TDU6 whole entry): as above
pEC50: −log10 of the molar value.
Task for the reader: assign each of the following compounds its reported pEC50.

Query block: Entry COc1cc(-n2c(C(C)(C)c3ccc(Cl)c(Cl)c3)cnc2SCc2c(F)cc(C(=O)NCCS(=O)(=O)O)cc2F)ccc1F : reported pEC50 = ?
Result block: > 7.00

Query block: Entry COc1ccc(C(C)(C)c2cnc(CNc3c(F)cccc3Cl)n2-c2ccc(F)cc2)cc1OC : reported pEC50 = ?
Result block: > 7.00

Query block: Entry CC(C)(c1ccc(Cl)c(Cl)c1)c1cnc(S(=O)(=O)Cc2ccc(Cl)c(Cl)c2)n1-c1ccc(F)cc1 : reported pEC50 = ?
Result block: 5.00 to 6.00

Query block: Entry CN(C)CCn1c(C(C)(C)c2ccc(Cl)c(Cl)c2)cnc1SCc1c(F)cccc1Cl : reported pEC50 = ?
Result block: 5.00 to 6.00

Query block: Entry COc1cc(C(C)(C)c2cnc(SCc3ccc(S(=O)(=O)NC(=O)NN4CCCC4)cc3F)n2-c2ccc(F)cc2)ccc1Cl : reported pEC50 = ?
Result block: > 7.00

Query block: Entry COc1ccc(C(C)(C)c2cnc(SCc3cc(F)ccc3Cl)n2-c2ccc(F)cc2)cc1Cl : reported pEC50 = ?
Result block: > 7.00

Query block: Entry CC(C)(c1ccc(Cl)c(Cl)c1)c1cnc(SCc2ccc(C#N)cc2Cl)n1-c1ccc(F)cc1 : reported pEC50 = ?
Result block: 6.00 to 7.00

Query block: Entry CC(C)(c1ccc(S(N)(=O)=O)c(Cl)c1)c1cnc(SCc2c(F)cc(C(=O)O)cc2Cl)n1-c1ccc(F)cc1 : reported pEC50 = ?
Result block: > 7.00

* * *

target: h-TGR5 (Homo sapiens); construct: expressed in transfected cells; assay: TGR5 cAMP Assay using Cisbio cAMP Dynamic2 htrf kit (hTGR5CRE-luc HEK 293 cells); format: cell-based; conditions: h-TGR5 cAMP EC50, Table 1; read-out: cAMP (EC50)
assay_readout: EC50

Query block: Entry CC(C)(c1ccc(Cl)c(Cl)c1)c1cnc(CCc2c(F)cc(C(=O)N[C@@H](CCCNC(=N)N)C(=O)O)cc2Cl)n1-c1ccc(F)cc1 : reported EC50 = ?
Result block: 100 to 1000 nM

Query block: Entry COc1cc(C(C)(C)c2cnc(SCc3ccc(S(=O)(=O)NC(=O)NN4CCCC4)cc3Cl)n2-c2ccc(F)cc2)ccc1S(N)(=O)=O : reported EC50 = ?
Result block: 100 to 1000 nM

Query block: Entry CC(C)(c1ccc(Cl)c(Cl)c1)c1cnc(SCC2CCN(c3nnn[nH]3)CC2)n1-c1ccc(F)cc1 : reported EC50 = ?
Result block: 100 to 1000 nM

Query block: Entry COc1cc(C(C)(C)c2cnc(SCc3ccc(S(=O)(=O)NC(=O)NCC(=O)O)cc3Cl)n2-c2ccc(F)cc2)ccc1Cl : reported EC50 = ?
Result block: 100 to 1000 nM

Query block: Entry CC(C)(c1ccc(Cl)c(Cl)c1)c1cnc(SCc2ccc(Cl)c(S(N)(=O)=O)c2)n1-c1ccc(F)cc1 : reported EC50 = ?
Result block: < 100 nM

Query block: Entry COc1cc(C(C)(C)c2cnc(SCc3c(F)cc(OCCNC(=N)N)cc3Cl)n2-c2ccc(F)cc2)ccc1Cl : reported EC50 = ?
Result block: < 100 nM

Query block: Entry COc1cc(C(C)(C)c2cnc(SCc3c(F)cc(-c4n[nH]c(=O)o4)cc3Cl)n2-c2ccc(F)cc2)ccc1Cl : reported EC50 = ?
Result block: < 100 nM

Query block: Entry CC(C)(O)CNC(=O)c1ccc(CSc2ncc(C(C)(C)c3ccc(Cl)c(Cl)c3)n2-c2ccc(F)cc2)c(F)c1 : reported EC50 = ?
Result block: 100 to 1000 nM

Query block: Entry CC(C)(c1ccc(Cl)c(Cl)c1)c1cnc(SCc2ccc(C(=O)O)cc2F)n1-c1ccc(F)cc1 : reported EC50 = ?
Result block: 100 to 1000 nM

Query block: Entry COc1cc(C(C)(C)c2c(Cl)nc(SCC3CCN(S(C)(=O)=O)CC3)n2-c2ccc(F)cc2)ccc1Cl : reported EC50 = ?
Result block: 100 to 1000 nM

Query block: Entry CC(C)(c1ccc(S(N)(=O)=O)c(Cl)c1)c1cnc(SCc2c(F)cc(C(=O)O)cc2Cl)n1-c1ccc(F)cc1 : reported EC50 = ?
Result block: < 100 nM

Query block: Entry COc1cc(C(C)(C)c2cnc(SCC3CCN(S(C)(=O)=O)CC3)n2-c2ccc(F)cc2)ccc1Cl : reported EC50 = ?
Result block: < 100 nM

Query block: Entry COc1ccc(C(C)(C)c2cnc(SCc3c(F)cc(C(=O)O)cc3F)n2-c2ccc(F)cc2)cc1Cl : reported EC50 = ?
Result block: < 100 nM

Query block: Entry CC(C)(c1ccc(F)c(F)c1)c1cnc(SCc2ccc(S(=O)(=O)NC(=O)NN3CCCC3)cc2Cl)n1-c1ccc(F)c(F)c1 : reported EC50 = ?
Result block: 1000 to 10000 nM

Query block: Entry COC(=O)c1cc(CSc2ncc(C(C)(C)c3ccc(Cl)c(Cl)c3)n2-c2ccc(F)c(OC)c2)ccc1C#CCNC(=N)N : reported EC50 = ?
Result block: 100 to 1000 nM

Query block: Entry COc1cc(C(C)(C)c2cnc(SCc3ccc(S(=O)(=O)NC(=O)NC4CC4)cc3Cl)n2-c2ccc(F)cc2)ccc1Cl : reported EC50 = ?
Result block: < 100 nM

Query block: Entry COc1cc(C(C)(C)c2cnc(SCc3ccc(S(=O)(=O)NC(=O)NN4CCCC4)cc3Cl)n2-c2ccc(F)cc2F)ccc1Cl : reported EC50 = ?
Result block: 100 to 1000 nM

Query block: Entry COc1cc(C(C)(C)c2cnc(SCc3cc(OCCNC(=N)N)c(Cl)cc3F)n2-c2ccc(F)cc2)ccc1Cl : reported EC50 = ?
Result block: < 100 nM

Query block: Entry CC(C)NC(=O)NS(=O)(=O)c1ccc(CSc2ncc(C(C)(C)c3ccc(F)c(C#N)c3)n2-c2ccc(F)cc2)c(Cl)c1 : reported EC50 = ?
Result block: 100 to 1000 nM

Query block: Entry COc1cc(C(C)(C)c2cnc(SCC3CCN(c4nnn[nH]4)CC3)n2-c2ccc(F)cc2)ccc1Cl : reported EC50 = ?
Result block: 100 to 1000 nM

Query block: Entry COc1cc(-n2c(C(C)(C)c3ccc(F)c(Cl)c3)cnc2SCc2c(F)cc(CCCN(C)C)cc2F)ccc1F : reported EC50 = ?
Result block: < 100 nM

Query block: Entry CC(C)(c1ccc(Cl)c(Cl)c1)c1cnc(SCC2CCCN(c3nnn[nH]3)C2)n1-c1ccc(F)cc1 (stereo not shown) : reported EC50 = ?
Result block: 1000 to 10000 nM

Query block: Entry COc1cc(C(C)(C)c2cnc(SCc3c(F)cc(OCCCNC(=N)N)cc3F)n2-c2ccc(F)cc2)ccc1F : reported EC50 = ?
Result block: < 100 nM

Query block: Entry CC(C)(c1ccc(Cl)c(Cl)c1)c1cnc(SCc2c(F)cc(C(=O)O)cc2Cl)n1-c1ccc(F)cc1 : reported EC50 = ?
Result block: 100 to 1000 nM

Query block: Entry CC(C)(c1ccc(Cl)c(Cl)c1)c1cnc(SCc2ccc(S(=O)(=O)NC(=O)NN3CCCC3)cc2Cl)n1-c1ccc(F)cc1 : reported EC50 = ?
Result block: 1000 to 10000 nM

Query block: Entry COc1cc(C(C)(C)c2cnc(SCc3c(F)cc(C(=O)N[C@@H](CCCNC(=N)N)C(=O)O)cc3Cl)n2-c2ccc(F)cc2)ccc1Cl : reported EC50 = ?
Result block: < 100 nM

Query block: Entry CC(C)(c1ccc(Cl)c(Cl)c1)c1cnc(SCC2CCN(S(C)(=O)=O)C2)n1-c1ccc(F)cc1 (stereo not shown) : reported EC50 = ?
Result block: 100 to 1000 nM

Query block: Entry COc1cc(C(C)(C)c2cnc(SCc3ccc(F)c(S(N)(=O)=O)c3)n2-c2ccc(F)cc2)ccc1Cl : reported EC50 = ?
Result block: < 100 nM

Query block: Entry COc1cc(C(C)(C)c2cnc(SCc3c(F)cc(CCCNC(=N)N)cc3F)n2-c2ccc(F)cc2)ccc1Cl : reported EC50 = ?
Result block: < 100 nM

Query block: Entry COc1cc(-n2c(C(C)(C)c3ccc(S(N)(=O)=O)c(Cl)c3)cnc2SCc2c(F)cc(C(=O)NCCS(=O)(=O)O)cc2F)ccc1F : reported EC50 = ?
Result block: < 100 nM

Query block: Entry COc1cc(C(C)(C)c2cnc(SCc3ccc(S(=O)(=O)NC(=O)NN4CCCC4)cc3Cl)n2-c2ccc(F)cn2)ccc1Cl : reported EC50 = ?
Result block: 100 to 1000 nM
